Experiment: amyloid nucleation score (Sup35N fusion, yeast selection) (log enrichment); library NNK2; higher = more nucleation; inactive = no reads after selection;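 note: zero at mode of non-aggregating sequences after 7 days selection at 30°C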
Observed Property: amyloid nucleation score

Substance | Observed Measurement
MFGGPGGGRDRVMVGDVLLG | 0.295
VVTLDRGLGHNRKGIQLGFR | 0.547
TFGTSFKYFMSWLIDRCCYL | -0.836
FFGRGSHKAGYYSCTTSLTQ | 1.07
MRYRIICNFCHDVRKESLLK | -0.246
QSVGATNLLG | 0.501
RVVCLLKGRWFALVLPDYCR | 0.479
GRIILTLFNYYT | 6.88
YMNSSLARISPRGSRCERQ | 0.162
HTSVFFRKKPGSCISRSLSL | inactive

Would you kindly share the measured amyloid nucleation score for `EFIDLVD` ? inactive

Would you kindly share the measured amyloid nucleation score for `FAFKTLVWHRGVCRFPGARL` ? inactive

Would you kindly share the measured amyloid nucleation score for `NFKYHCRYWFFVFAKFKFHL` ? -1.42

Would you kindly share the measured amyloid nucleation score for `SVCVRT` ? inactive

Would you kindly share the measured amyloid nucleation score for `SYRNLDKTIRSDKLQVNLGI` ? -1.57

Would you kindly share the measured amyloid nucleation score for `FLLDAPKLAEDEYPHGSDDN` ? inactive

Would you kindly share the measured amyloid nucleation score for `VNVEYSSMHKLCAW` ? 0.201

###

Assay: amyloid nucleation score (Sup35N fusion, yeast selection) (log enrichment); library NNK3; higher = more nucleation; inactive = no reads after selection
Observed Property: amyloid nucleation score

Observe how each entry below is paired with its result.
Substance | Observed Property | Observed Measurement
RWFRLSWLEISKYA | amyloid nucleation score | inactive
LKYSSDQYLCRTFLGISGFG | amyloid nucleation score | inactive
SNRYVCLAYYFSE | amyloid nucleation score | 0.154
SYCDSNRGVDLV | amyloid nucleation score | -0.611
GYAADMIFYQGHHMKISMFR | amyloid nucleation score | 1.08
VLGLFSTYDSFVCFN | amyloid nucleation score | inactive
LWGYDNDVNCCTMALNVHGV | amyloid nucleation score | 0.503
HQIFYVFEYEYSKRLLCMWW | amyloid nucleation score | inactive

Would you kindly share the measured amyloid nucleation score for `INYSWFDLSMALTK` ? inactive

Would you kindly share the measured amyloid nucleation score for `YSNYCGQFSIVPIVFFYIVI` ? 1.1

Would you kindly share the measured amyloid nucleation score for `QFSMLMVVLCP` ? inactive

Would you kindly share the measured amyloid nucleation score for `GNNPLVVKNLNRKCL` ? -0.357

Would you kindly share the measured amyloid nucleation score for `SPTLPGCLVLEIINDNI` ? inactive

Would you kindly share the measured amyloid nucleation score for `SMACCGLSIAATNAPKVPKV` ? 0.498

Would you kindly share the measured amyloid nucleation score for `VWRSNF` ? inactive

Would you kindly share the measured amyloid nucleation score for `NVWSVVFVSCLIIYGCPKWM` ? 1.31

Would you kindly share the measured amyloid nucleation score for `YVWMKGHNHYFFESMDVYLM` ? inactive

Would you kindly share the measured amyloid nucleation score for `KMTGLWLNVAVSDAFLEYDE` ? 1.46

Would you kindly share the measured amyloid nucleation score for `VRGLDVCTDEFCVQLDYMW` ? inactive

Would you kindly share the measured amyloid nucleation score for `RLYDIVCYSTVVL` ? 1.99

Would you kindly share the measured amyloid nucleation score for `TCVMPGVSQLRFGYWVWICR` ? inactive

Would you kindly share the measured amyloid nucleation score for `YVNLCLGANPRSYMFKYGTH` ? 0.197

Would you kindly share the measured amyloid nucleation score for `TFCGFKP` ? inactive

Would you kindly share the measured amyloid nucleation score for `YYCMFVGD` ? 1.24

Would you kindly share the measured amyloid nucleation score for `GFVMMFNR` ? inactive

Would you kindly share the measured amyloid nucleation score for `WGRGLRPTLVGMFARAHRGA` ? inactive

Would you kindly share the measured amyloid nucleation score for `RCHISERD` ? inactive
